Molecular target: S100B (Homo sapiens)
Construct: made in house; host or cells: Escherichia coli BL21(DE3)
Sequence (P04271 1-92): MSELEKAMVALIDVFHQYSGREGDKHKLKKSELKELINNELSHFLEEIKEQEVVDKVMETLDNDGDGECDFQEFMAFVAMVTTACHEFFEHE
Assay: Pull-down assay with immobilized protein and LSM libraries
Assay type: binding
Settings: H12 library; 1:1 binding assumed; read-out: Surface mapping KD (apparent)
# note: boundary value 200 µM maps to No; Kd below it maps to Yes

molecular_string	classification
NCCCC[C@@H](CC(=O)N[C@H]1CCC[C@@H]1C(=O)N[C@H]1CCC[C@@H]1C(=O)N[C@H](CC(=O)N[C@H]1CCC[C@@H]1C(=O)N[C@H]1CCC[C@@H]1C(N)=O)Cc1ccc(O)cc1)NC(=O)[C@H]1CCC[C@@H]1NC(=O)[C@H]1CCC[C@@H]1N	Yes
CSCC[C@@H](CC(=O)N[C@H]1CCC[C@@H]1C(=O)N[C@H]1CCC[C@@H]1C(N)=O)NC(=O)[C@H]1CCC[C@@H]1NC(=O)[C@H]1CCC[C@@H]1NC(=O)C[C@H](CCSC)NC(=O)[C@H]1CCC[C@@H]1NC(=O)[C@H]1CCC[C@@H]1N	Yes
C[C@@H](CC(=O)N[C@H]1CCC[C@@H]1C(=O)N[C@H]1CCC[C@@H]1C(=O)N[C@@H](CCCCN)CC(=O)N[C@H]1CCC[C@@H]1C(=O)N[C@H]1CCC[C@@H]1C(N)=O)NC(=O)[C@H]1CCC[C@@H]1NC(=O)[C@H]1CCC[C@@H]1N	No
CC[C@H](C)[C@@H](CC(=O)N[C@H]1CCC[C@@H]1C(=O)N[C@H]1CCC[C@@H]1C(N)=O)NC(=O)[C@H]1CCC[C@@H]1NC(=O)[C@H]1CCC[C@@H]1NC(=O)C[C@@H](NC(=O)[C@H]1CCC[C@@H]1NC(=O)[C@H]1CCC[C@@H]1N)C(C)C	Yes
NC(=O)[C@H]1CCC[C@@H]1NC(=O)[C@H]1CCC[C@@H]1NC(=O)C[C@H](Cc1ccc(O)cc1)NC(=O)[C@H]1CCC[C@@H]1NC(=O)[C@H]1CCC[C@@H]1NC(=O)C[C@H](Cc1ccccc1)NC(=O)[C@H]1CCC[C@@H]1NC(=O)[C@H]1CCC[C@@H]1N	Yes
NC(=O)CC[C@@H](CC(=O)N[C@H]1CCC[C@@H]1C(=O)N[C@H]1CCC[C@@H]1C(=O)N[C@H](CC(=O)N[C@H]1CCC[C@@H]1C(=O)N[C@H]1CCC[C@@H]1C(N)=O)Cc1c[nH]c2ccccc12)NC(=O)[C@H]1CCC[C@@H]1NC(=O)[C@H]1CCC[C@@H]1N	Yes
CC(C)C[C@@H](CC(=O)N[C@H]1CCC[C@@H]1C(=O)N[C@H]1CCC[C@@H]1C(=O)N[C@H](CC(=O)N[C@H]1CCC[C@@H]1C(=O)N[C@H]1CCC[C@@H]1C(N)=O)Cc1c[nH]c2ccccc12)NC(=O)[C@H]1CCC[C@@H]1NC(=O)[C@H]1CCC[C@@H]1N	Yes
CC[C@H](C)[C@@H](CC(=O)N[C@H]1CCC[C@@H]1C(=O)N[C@H]1CCC[C@@H]1C(N)=O)NC(=O)[C@H]1CCC[C@@H]1NC(=O)[C@H]1CCC[C@@H]1NC(=O)C[C@H](C)NC(=O)[C@H]1CCC[C@@H]1NC(=O)[C@H]1CCC[C@@H]1N	No
CC(C)C[C@@H](CC(=O)N[C@H]1CCC[C@@H]1C(=O)N[C@H]1CCC[C@@H]1C(N)=O)NC(=O)[C@H]1CCC[C@@H]1NC(=O)[C@H]1CCC[C@@H]1NC(=O)C[C@H](C)NC(=O)[C@H]1CCC[C@@H]1NC(=O)[C@H]1CCC[C@@H]1N	No
